# Test system: NIH3T3
# methodSummary: Cytotoxic Profiling of Annotated Libraries Using Quantitative High-Throughput Screening (AID 1296008); note: % is set by controls: 0 for no effect and ±100 for the full control effect; nearly all actives have a fitted effect of over 60% in size
# conditionInfo: Five cell lines viability, CellTiter-Glo ATP luminescence, 48-72 h; stronger effect = lower value
Results filed as inconclusive are left out.
measuredMetric: max response (%)
Field: numeric (%). Do not append units.

Entry under test: "O=C(NO)c1ccc(CC(=O)N(CCO)c2ccccc2)cc1" . Its max response was -4.33

Entry under test: "COc1ccc2nc3n[nH]c(C)c3c(NCCOCCO)c2c1" . Its max response was 2.85

Entry under test: COC1CC(=O)C23C(=O)NC(CC(C)C)C2C(C)C(C)=CC3/C=C(\C)CCCC1O (stereo not given) . Its max response was -14.9

Entry under test: "C=C(C(=O)O)[C@@H]1CC=C(CCC(C)=O)[C@@H](C)CC1" . Its max response was -3.55

Entry under test: CC1OC2OC(=O)C3(C)CC4C5(CO5)C5=CC(=O)OC(C)(C)C5=CC(=O)C4(C)C(C1=O)C23 (stereo not given) . Its max response was 1.81

---

# System: Nanoluciferase (engineered Oplophorus gracilirostris luciferase)
# methodSummary: Primary Nanoluciferase (NLuc) qHTS assay for identification of artifact compounds. (AID 1845222);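 note: NLuc secreted into diluted conditioned medium of S16 cells; 0% = DMSO and -100% = no enzyme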
# conditionInfo: NLuc-conditioned medium, Nano-Glo luminescence, 5 min; series mostly up to 54.1 µM
Calls of active or inactive are those of the source. Calls follow the shape of the dose curve; as a rule, active = well fitted inhibition curve with a large enough effect; inconclusive = small, poorly fitted or top-dose-only effect; inactive = flat fitted curve, though single readings scatter.
measuredMetric: activity, negative = inhibition

Use the examples below as a reference point.
CCC(C)C(=O)O[C@H]1[C@@H](OC(=O)c2ccoc2)C[C@](C)(O)[C@]23OC(C)(C)[C@H](C[C@H](OC(=O)c4ccoc4)[C@]12COC(C)=O)[C@H]3OC(C)=O (stereo partly drawn) ... inactive
COc1cc(/C=C/C(=O)NCCn2c(C(F)(F)F)cc3ccccc32)cc(OC)c1OC ... inactive
CC1OC(=O)C[C@@H]2C(C(=O)O)=CO[C@@H](O[C@H]3O[C@H](CO)[C@@H](O)[C@H](O)[C@H]3O)[C@H]12 (stereo partly drawn) ... inactive
CCNC1(C(N)=O)CCN(c2ncnc3c2nc(-c2ccccc2Cl)n3-c2ccc(Cl)cc2)CC1 ... inactive
CC(=O)O[C@@H]1C[C@@]2(C)C(CC[C@]3(C)C2CC=C2C4CC(C)(C)CC[C@]4(C(=O)O)CC[C@]23C)C(C)(C)[C@H]1O (stereo partly drawn) ... inactive
CN(C)c1ccc(NC(=O)NS(=O)(=O)c2ccc(Cl)cc2)cc1 ... inactive
N#Cc1ccc(Nc2nc(-c3ccc(O)cc3O)cs2)cc1C(F)(F)F ... inactive

Now consider a different compound.
Entry under test: "COC1CCN(C(=O)c2cc(Cc3n[nH]c(=O)c4ccccc34)ccc2F)CC1" . Its activity, negative = inhibition was inactive

---

# System: SKOV3
# methodSummary: Primary qHTS to identify gynecologic anti-cancer compounds using libraries of approved drugs and bioactive compounds (AID 1345084); note: nearly all actives have a fitted effect of over 55% in size; note: potency is the fitted concentration of half-maximal effect
# conditionInfo: Gynecologic cancer cell panel viability, ATPlite luminescence, 48 h; series mostly up to 57.5 µM
Inconclusive results are not listed. The source made the active and inactive calls. The call rests on the fitted dose curve; in most records, active means well fitted cell-killing curve with a large enough effect; inconclusive means small, poorly fitted or top-dose-only effect, or effect the other way; inactive means flat fitted curve, though single readings scatter.
measuredMetric: Potency

Use the examples below as a reference point.
CC(C)(C)NC(=O)[C@H]1CC[C@H]2[C@@H]3CC[C@H]4NC(=O)CC[C@]4(C)[C@H]3CC[C@]12C ... inactive
CCCCCCOC(=O)/N=C(\N)c1ccc(NCc2nc3cc(C(=O)N(CCC(=O)OCC)c4ccccn4)ccc3n2C)cc1 ... inactive
COc1ccccc1-c1ccc(-c2cn(C(=O)N3CCCCC3Cc3ccccc3)nn2)cc1 (centres undefined) ... inactive
O=C(Nc1ccc(Cl)cc1)c1ccccc1NCc1ccncc1 ... inactive
O=C(NCCCN1CCOCC1)c1cnn2c(-c3ccccc3)cc(-c3ccccc3)nc12 ... inactive

Entry under test: "O=c1cc(N2CCN(c3cccc(C(F)(F)F)c3)CC2)[nH]c(=O)n1C1CCCCC1" . Its Potency was inactive

Entry under test: C=C1C(=O)OC2C(OC(=O)C=C(C)C)C(C)=C3C(=O)C=C(C)C3C(O)C12 (centres undefined) . Its Potency was 12.6 µM (active)

Entry under test: "CC(C)c1cccc(C(C)C)c1NC(=O)Nc1ccc(Sc2ccc([N+](=O)[O-])cc2)cc1" . Its Potency was inactive

Entry under test: "N#Cc1ccc(N2N=C3c4ccc(C(=O)O)cc4CC[C@@H]3[C@@H]2C2CCCC2)cc1Cl" . Its Potency was inactive

---

# System: KB-3-1
# methodSummary: Cytotoxic Profiling of Annotated Libraries Using Quantitative High-Throughput Screening (AID 1296008); note: % is set by controls: 0 for no effect and ±100 for the full control effect; nearly all actives have a fitted effect of over 60% in size
# conditionInfo: Five cell lines viability, CellTiter-Glo ATP luminescence, 48-72 h; stronger effect = lower value
Records with an inconclusive call do not appear. The source made the active and inactive calls. The call rests on the fitted dose curve; in most records, active means well fitted inhibition curve with a large enough effect; inconclusive means small, poorly fitted or top-dose-only effect; inactive means flat fitted curve, though single readings scatter.
Parameter: max response. Scope: all listed entries.

Use the examples below as a reference point.
O=C(NC[C@H]1CN(c2ccc(N3CCOCC3=O)cc2)C(=O)O1)c1ccc(Cl)s1 ... -11.5% (inactive)
COc1ccc(-n2c(SCCCN3C(=O)c4cccc5cccc(c45)C3=O)nnc2-c2ccncc2)cc1 ... -1.97% (inactive)
C=C1C(=O)O[C@H]2C1CCC(C)=C1C(=O)C=C(C)[C@@]12O (some centres undefined) ... -10.7% (inactive)

Entry under test: "CCCSc1nc(N[C@@H]2C[C@H]2c2ccc(F)c(F)c2)c2nnn([C@@H]3C[C@H](OCCO)[C@@H](O)[C@H]3O)c2n1" . Its max response was -26.6% (inactive)

---

# methodSummary: P-glycoprotein substrates identified in KB-8-5-11 adenocarcinoma cell line, qHTS therapeutic library screen (AID 1346987); note: % is set by controls: 0 for no effect and ±100 for the full control effect; nearly all actives have a fitted effect of over 65% in size
# conditionInfo: KB-8-5-11 (P-gp overexpressing) viability, CellTiter-Glo, 72 h; series mostly up to 44.5 µM
Inconclusive results are not listed. Calls of active or inactive are those of the source. Calls follow the shape of the dose curve; as a rule, active = well fitted inhibition curve with a large enough effect; inconclusive = small, poorly fitted or top-dose-only effect; inactive = flat fitted curve, though single readings scatter.
Respond using exactly one of the listed classes: y for active, n for inactive

CNC(C)C(=O)NC(C(=O)N1CCCC1C(=O)Nc1snnc1-c1ccccc1)C1CCCCC1 (stereo unspecified) ... n
COc1cc(/C=C2\CC[C@H]3COC[C@@H](c4cc(F)c(F)c(F)c4)N3C2=O)ccc1-n1cnc(C)c1 ... n
CCOC(=O)[C@H](CCc1ccccc1)N[C@H]1CCCN2CCC[C@@H](C(=O)O)N2C1=O ... n

Prompt: GET /call?item= "CCNC1(C(N)=O)CCN(c2ncnc3c2nc(-c2ccccc2Cl)n3-c2ccc(Cl)cc2)CC1" returns the recorded outcome of this test.
Response: n

Prompt: GET /call?item= "O=C(Nc1ccc(N(Cc2ccsc2)C(=O)Cn2nnc3ccccc32)cc1)C1CC1" returns the recorded outcome of this test.
Response: n

---

# Test system: Tov112D
# methodSummary: Primary qHTS to identify gynecologic anti-cancer compounds using libraries of approved drugs and bioactive compounds (AID 1345084); note: nearly all actives have a fitted effect of over 55% in size
# conditionInfo: Gynecologic cancer cell panel viability, ATPlite luminescence, 48 h; series mostly up to 57.5 µM
Results filed as inconclusive are left out. Calls of active or inactive are those of the source. The call rests on the fitted dose curve; in most records, active means well fitted cell-killing curve with a large enough effect; inconclusive means small, poorly fitted or top-dose-only effect, or effect the other way; inactive means flat fitted curve, though single readings scatter.
Respond using exactly one of the listed classes: 1.0 = active, 0.0 = inactive

CC(C)S(=O)(=O)c1ccc2nccc(Nc3ccc4scnc4c3)c2c1 ... 0.0
CC1(C)Oc2ncnc(N)c2N=C1c1ccc(C23CCC(CC(=O)O)(CC2)CC3)cc1 ... 0.0
CC(C)=C1C[C@@]2(C)C(=CC1=O)CC[C@@H](OC(=O)/C(C)=C/CO)[C@@H]2C ... 0.0
CN1CCN(Cc2ccc(NC(=O)Cc3ccc(Oc4cc(NC(=O)C5CC5)ncn4)cc3)cc2C(F)(F)F)CC1 ... 1.0
O=C(Nc1cccc([N+](=O)[O-])c1)c1cccc(S(=O)(=O)N2CCCCCC2)c1 ... 0.0
CN(C)C(CCOc1cccc2ccccc12)c1ccccc1 (centres undefined) ... 0.0

Prompt: GET /call?item= "Fc1ccc(-c2nc(-c3ccccc3F)[nH]c2-c2ccncc2)cc1" returns the recorded outcome of this test.
Response: 0.0

Prompt: GET /call?item= "O=S(=O)(Nc1cc(Cl)c(Oc2cnc3ccccc3c2)c(Cl)c1)c1ccc(Cl)cc1Cl" returns the recorded outcome of this test.
Response: 0.0

Prompt: GET /call?item= CCOc1ccc(-n2c(C(C)N(Cc3cccnc3)C(=O)Cc3ccc(F)c(C(F)(F)F)c3)nc3ncccc3c2=O)cc1 (centres undefined) returns the recorded outcome of this test.
Response: 0.0

---

# Tested on: OV90
# methodSummary: Primary qHTS to identify gynecologic anti-cancer compounds using libraries of approved drugs and bioactive compounds (AID 1345084); note: nearly all actives have a fitted effect of over 55% in size
# conditionInfo: Gynecologic cancer cell panel viability, ATPlite luminescence, 48 h; series mostly up to 57.5 µM
Inconclusive results are not listed. Calls of active or inactive are those of the source. The call rests on the fitted dose curve; in most records, active means well fitted cell-killing curve with a large enough effect; inconclusive means small, poorly fitted or top-dose-only effect, or effect the other way; inactive means flat fitted curve, though single readings scatter.
Respond using exactly one of the listed classes: active, inactive

// known answers, use as guide
O=C(Nc1ccccc1Br)NC1CCN(c2ccc(C(F)(F)F)cn2)C1 (stereo not drawn) ... inactive
NCC1CCN(c2nccc(-c3ccc4ccccc4c3)n2)CC1 ... inactive
COc1ccc(C2Oc3c(OC)cc(CCCO)cc3C2COC2OC(CO)C(O)C(O)C2O)cc1OC (stereo not drawn) ... inactive
C=C1C(=O)O[C@@H]2C(OC(=O)/C(C)=C\C)/C(C)=C\C(=O)/C=C(\C)C[C@H](O)[C@@H]12 (stereo partly drawn) ... inactive

Okay, now this compound:
Prompt: GET /call?item= "C[C@@H](O[C@H]1OCCN(Cc2nn(P(=O)(O)O)c(=O)[nH]2)[C@H]1c1ccc(F)cc1)c1cc(C(F)(F)F)cc(C(F)(F)F)c1" returns the recorded outcome of this test.
Response: inactive
